Source: paper PMC9822400

test_target: human recombinant PARP1 (Homo sapiens)
Construct: made in house
Sequence (P09874 whole entry): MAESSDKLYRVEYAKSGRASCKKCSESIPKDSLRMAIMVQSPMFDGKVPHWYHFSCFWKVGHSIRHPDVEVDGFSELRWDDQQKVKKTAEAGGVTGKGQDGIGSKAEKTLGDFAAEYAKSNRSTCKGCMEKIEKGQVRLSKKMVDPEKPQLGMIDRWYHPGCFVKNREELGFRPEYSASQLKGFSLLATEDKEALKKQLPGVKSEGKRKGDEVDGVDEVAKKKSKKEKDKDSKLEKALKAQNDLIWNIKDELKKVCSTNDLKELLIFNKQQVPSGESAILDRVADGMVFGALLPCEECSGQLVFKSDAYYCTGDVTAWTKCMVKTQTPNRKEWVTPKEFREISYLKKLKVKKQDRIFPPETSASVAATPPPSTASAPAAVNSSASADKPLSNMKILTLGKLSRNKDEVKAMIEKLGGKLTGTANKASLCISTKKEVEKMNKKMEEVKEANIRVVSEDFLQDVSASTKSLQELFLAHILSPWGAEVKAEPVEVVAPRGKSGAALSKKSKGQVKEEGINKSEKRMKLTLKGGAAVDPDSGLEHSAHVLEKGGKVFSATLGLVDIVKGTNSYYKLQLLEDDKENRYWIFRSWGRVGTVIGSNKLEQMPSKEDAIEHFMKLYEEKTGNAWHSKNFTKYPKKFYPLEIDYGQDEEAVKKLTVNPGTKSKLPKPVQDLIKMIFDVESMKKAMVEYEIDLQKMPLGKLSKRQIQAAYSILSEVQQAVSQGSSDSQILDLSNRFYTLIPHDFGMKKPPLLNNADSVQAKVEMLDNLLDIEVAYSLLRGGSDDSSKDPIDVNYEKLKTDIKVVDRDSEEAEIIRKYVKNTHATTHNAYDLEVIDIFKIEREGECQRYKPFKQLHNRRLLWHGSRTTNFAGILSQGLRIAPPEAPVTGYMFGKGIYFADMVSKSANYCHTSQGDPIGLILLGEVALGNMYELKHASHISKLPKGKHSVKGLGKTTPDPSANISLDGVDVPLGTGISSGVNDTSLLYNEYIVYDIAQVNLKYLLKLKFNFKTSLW
test_summary: PARP1 activity by inclusion of α-[32P]-NAD+ in poly(ADP-ribose)
Type: biochemical
condition_info: in the presence of 1 mM compound; read-out: Residual activity of PARP1
Experimental: Since it has previously been shown that nucleoside derivatives can inhibit enzymes of the PARP family, we also checked whether the studied compounds were able to inhibit the enzymes PARP1 and PARP2. […] Thus, when using our compounds, one cannot expect side effects from PARP1/2. Purified human recombinant PARP1/2 [65] and [^32P] […] The activity of PARP1/2 was evaluated by the rate of incorporation of the radioactive label into the acid-insoluble reaction product—PAR as described previously.
value_kind: remaining activity at 1000 µM (%)

# compound, test_target, value_kind, unit_tag, obs_value
measured = [
    ("Nc1ncnc2c1ncn2[C@H]1C[C@H](O)[C@@H](CO)O1 [compound 4, reference compound]", "human recombinant PARP1 (Homo sapiens)", "remaining activity at 1000 µM", "%", 84),
    ("O=C(OC[C@H]1O[C@@H](n2cnc3c(Cl)nc(Cl)nc32)[C@H](OC(=O)c2ccccc2)[C@@H]1OC(=O)c1ccccc1)c1ccccc1", "human recombinant PARP1 (Homo sapiens)", "remaining activity at 1000 µM", "%", 96),
    ("Nc1nc2c(ncn2[C@H]2C[C@H](O)[C@@H](CO)O2)c(=O)[nH]1 [compound 2, reference compound]", "human recombinant PARP1 (Homo sapiens)", "remaining activity at 1000 µM", "%", 102),
    ("O=C(OC[C@H]1O[C@@H](n2cnc3c(O)ncnc32)[C@H](OC(=O)c2ccccc2)[C@@H]1OC(=O)c1ccccc1)c1ccccc1", "human recombinant PARP1 (Homo sapiens)", "remaining activity at 1000 µM", "%", 87),
    ("OC[C@H]1O[C@@H](n2cnc3c(NCc4cc5ccc6cccc7ccc(c4)c5c67)ncnc32)[C@H](O)[C@@H]1O", "human recombinant PARP1 (Homo sapiens)", "remaining activity at 1000 µM", "%", 88),
    ("O=C(OC[C@H]1O[C@@H](n2cnc3c(Cl)ncnc32)[C@H](OC(=O)c2ccccc2)[C@@H]1OC(=O)c1ccccc1)c1ccccc1", "human recombinant PARP1 (Homo sapiens)", "remaining activity at 1000 µM", "%", 86),
]
